Biological target: human μ-opiate receptor (Homo sapiens, UniProt P35372)
Sequence (P35372 whole entry): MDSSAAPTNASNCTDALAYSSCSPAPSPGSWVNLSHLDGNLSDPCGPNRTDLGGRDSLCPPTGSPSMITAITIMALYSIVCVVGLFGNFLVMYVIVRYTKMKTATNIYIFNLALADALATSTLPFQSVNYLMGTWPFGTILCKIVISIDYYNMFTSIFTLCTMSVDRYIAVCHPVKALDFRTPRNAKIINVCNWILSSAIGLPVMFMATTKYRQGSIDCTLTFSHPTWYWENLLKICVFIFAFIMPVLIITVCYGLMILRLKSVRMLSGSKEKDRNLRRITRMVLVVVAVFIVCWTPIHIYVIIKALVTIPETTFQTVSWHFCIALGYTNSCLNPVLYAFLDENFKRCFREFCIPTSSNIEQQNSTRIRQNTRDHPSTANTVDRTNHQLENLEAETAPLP
Test: Affinity for the human μ-opiate receptor ([3H]-naloxone displacement, SPA, CHO-K1 membrane preparation)
Assay type: binding
Details: read-out: μ-Opioid receptor, Ki
Structures can show the parent of a compound that is named as a salt.
Property: pKi
One number for each entry, as −log10 of the molar value.

compound="Cc1onc(-c2c(Cl)cccc2Cl)c1C(=O)NCCC1CCC(C(c2cccs2)N(C)C)CC1 (stereo not shown)" property=pKi test_value=7.24
compound="CCCc1ccc(C(=O)NCCC2CCC(C(c3cccs3)N(C)C)CC2)cc1 (stereo not shown)" property=pKi test_value=7.40
compound="CN(C)C(c1cccs1)C1CCC(CCNC(=O)c2c(Cl)cccc2Cl)CC1 (stereo not shown)" property=pKi test_value=7.59
compound="CCOC(=O)CC1CCC(C(c2ccccc2)N(C)C)CC1 (stereo not shown)" property=pKi test_value=7.10
compound="CN(C)C(c1ccc(F)cc1)C1CCC(NC(=O)c2ccc(Cl)c(Cl)c2)CC1 (stereo not shown)" property=pKi test_value=6.72
compound="CC(=O)N(C(C)Cc1c[nH]c2ccccc12)C1CCC(C(c2ccccc2)N(C)C)CC1 (stereo not shown) [compound 177]" property=pKi test_value=8.14
compound="CC(Oc1ccccc1)C(=O)NCC1CCC(C(c2ccc(Cl)cc2)N(C)C)CC1 (stereo not shown)" property=pKi test_value=7.59
compound="COc1ccccc1C(=O)NCC1CCC(C(c2cccc(F)c2)N(C)C)CC1 (stereo not shown)" property=pKi test_value=7.47

// batch mode: one pKi value per listed entry
1. CN(C)C(c1cccs1)C1CCC(NC(=O)c2cncc(Br)c2)CC1 (stereo not shown)
2. CN(C)C(c1cccc(F)c1)C1CCC(NC(=O)c2ccc(-c3ccccn3)s2)CC1 (stereo not shown)
3. CCCC(=O)N(Cc1ccccc1)C1CCC(C(c2ccccc2)N(C)C)CC1 (stereo not shown) [compound 102, hydrochloride]

Result:
1: 7.70; 2: 6.82; 3: 8.82

Please go through the list and note pKi for each compound.
1. CN(C)C(CCc1ccccc1)C1CCC(NC(=O)c2ccc(F)cc2)CC1 (stereo not shown)
2. CCC(C(=O)NCCC1CCC(C(c2cccs2)N(C)C)CC1)c1ccccc1 (stereo not shown)
3. CN(C)C(c1ccc(Cl)cc1)C1CCC(CCNC(=O)c2cccnc2Cl)CC1 (stereo not shown)
4. CC(Oc1ccccc1)C(=O)NC1CCC(C(c2cccc(F)c2)N(C)C)CC1 (single isomer, unassigned) [compound 222]
5. CN(C)C(c1ccccc1)C1CCC(NC(=O)c2cc(C(F)(F)F)ccc2F)CC1 (stereo not shown)
6. CCC(C(=O)NC1CCC(C(c2ccccc2)N(C)C)CC1)c1ccccc1 (single isomer, unassigned) [compound 234]

Result:
1. 7.17
2. 7.64
3. 6.70
4. 7.70
5. 7.66
6. 7.34

---

Molecular target: Noradrenaline (NA) reuptake (Rattus norvegicus)
Construct: synaptosomes are freshly isolated from areas of rat brain; from tissue; host or cells: rat hypothalamus synaptosomes (P2 fraction)
Sequence (Q63380 1-617): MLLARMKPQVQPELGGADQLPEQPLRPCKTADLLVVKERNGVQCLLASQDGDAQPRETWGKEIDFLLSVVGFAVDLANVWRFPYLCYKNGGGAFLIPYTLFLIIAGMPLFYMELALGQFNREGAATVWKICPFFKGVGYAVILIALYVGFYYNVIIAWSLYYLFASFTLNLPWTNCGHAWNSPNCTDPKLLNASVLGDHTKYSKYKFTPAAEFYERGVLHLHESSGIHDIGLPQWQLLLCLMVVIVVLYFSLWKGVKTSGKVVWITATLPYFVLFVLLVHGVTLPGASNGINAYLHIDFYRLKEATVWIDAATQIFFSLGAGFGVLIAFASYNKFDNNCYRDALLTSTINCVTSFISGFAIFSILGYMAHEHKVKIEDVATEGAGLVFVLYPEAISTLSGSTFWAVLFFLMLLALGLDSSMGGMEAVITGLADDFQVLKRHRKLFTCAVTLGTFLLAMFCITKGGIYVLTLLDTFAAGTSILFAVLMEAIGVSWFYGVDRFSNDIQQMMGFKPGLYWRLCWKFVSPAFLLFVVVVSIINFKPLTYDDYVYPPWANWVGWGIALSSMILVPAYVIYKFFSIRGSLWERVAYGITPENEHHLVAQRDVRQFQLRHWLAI
Assay: Noradrenaline (NA) reuptake inhibition in rat brain synaptosomes (hypothalamus, P2 fraction)
Assay type: biochemical
Where a name gives a salt, the structure may show the parent alone.
Recorded Ki determines the label; the label ranges are LOW: < 300 nM; MEDIUM: ≥ 300 nM and < 600 nM; HIGH: ≥ 600 nM

molecule="CCOC(=O)C=CC1CCC(C(c2ccc(F)cc2)N(C)C)CC1 (stereo not shown)" target_desc="Noradrenaline (NA) reuptake (Rattus norvegicus)" category=MEDIUM

Q: Classify this molecule: CC(=O)N(CCCCc1ccccc1)C1CCC(C(c2ccccc2)N(C)C)CC1 (stereo not shown) [compound 98, hydrochloride]
Result: HIGH

Q: Please give the result for CN(C)C(c1ccccc1)C1CCC(N(Cc2ccccc2)C(=O)c2ccc(F)cc2)CC1 (stereo not shown) [compound 103, hydrochloride] too.
Result: MEDIUM

Q: Cool, now CC(=O)N(Cc1ccccc1)C1CCC(C(c2ccccc2)N(C)C)CC1 (stereo not shown) [compound 100, hydrochloride]
Result: MEDIUM

---

Molecular target: Serotonin (5HT) reuptake (Rattus norvegicus, UniProt P31652)
Construct: synaptosomes are freshly isolated from areas of rat brain; from tissue; host or cells: rat brain synaptosomes (P2 fraction)
Sequence (P31652 whole entry): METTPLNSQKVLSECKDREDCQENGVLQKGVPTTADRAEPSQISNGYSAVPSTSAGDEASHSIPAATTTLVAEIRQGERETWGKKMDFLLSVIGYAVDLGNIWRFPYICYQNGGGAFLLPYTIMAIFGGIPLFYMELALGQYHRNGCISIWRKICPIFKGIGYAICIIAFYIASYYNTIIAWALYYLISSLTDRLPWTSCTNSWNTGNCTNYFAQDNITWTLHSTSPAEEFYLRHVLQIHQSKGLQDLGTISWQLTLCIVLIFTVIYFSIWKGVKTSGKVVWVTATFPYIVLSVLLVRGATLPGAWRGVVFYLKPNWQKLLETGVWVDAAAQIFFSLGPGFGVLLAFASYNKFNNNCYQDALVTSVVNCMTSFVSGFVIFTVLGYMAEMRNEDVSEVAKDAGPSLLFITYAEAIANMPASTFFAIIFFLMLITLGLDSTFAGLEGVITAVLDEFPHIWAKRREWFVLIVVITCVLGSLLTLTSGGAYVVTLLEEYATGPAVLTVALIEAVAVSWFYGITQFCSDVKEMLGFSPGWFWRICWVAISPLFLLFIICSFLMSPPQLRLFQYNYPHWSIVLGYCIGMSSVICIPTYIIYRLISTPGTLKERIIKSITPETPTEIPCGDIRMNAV
Experiment: Serotonin (5HT) reuptake inhibition in rat brain synaptosomes (P2 fraction)
Type: biochemical
Settings: read-out: Serotonin reuptake, % inhibition [10 μM]
Where a name gives a salt, the structure may show the parent alone.
Property: inhibition at 10 µM (%)
Numbers only, in %.

Illustrative cases are given below, each with its answer.
compound="COc1ccc(CNC2CCC(C(c3ccccc3)N(C)C)CC2)cc1 (centres unmarked) [compound 90, dihydrochloride]" target_desc="Serotonin (5HT) reuptake (Rattus norvegicus, UniProt P31652)" value_unit=% test_value=87
compound="CN(C)C(c1cccs1)C1CCC(O)CC1 (centres unmarked)" target_desc="Serotonin (5HT) reuptake (Rattus norvegicus, UniProt P31652)" value_unit=% test_value=63
compound="COc1cccc(NC(=O)CC2CCC(C(Cc3ccccc3)N3CCCC3)CC2)c1 (centres unmarked)" target_desc="Serotonin (5HT) reuptake (Rattus norvegicus, UniProt P31652)" value_unit=% test_value=3
compound="CN(C)C(CCc1ccccc1)C1CCC(N)CC1 (centres unmarked)" target_desc="Serotonin (5HT) reuptake (Rattus norvegicus, UniProt P31652)" value_unit=% test_value=78

For the next question, use this compound.
Q: Need inhibition at 10 µM of CCCC(=O)N(Cc1ccccc1)C1CCC(C(c2ccccc2)N(C)C)CC1 (centres unmarked) [compound 102, hydrochloride] , thanks.
Result: 85

---

Target: UniProt:P35372
Test: Affinity for the human μ-opiate receptor ([3H]-naloxone displacement, SPA, CHO-K1 membrane preparation)
Type: binding
Settings: read-out: μ-Opioid receptor, Ki
Counter-ions that a name gives are not always drawn.
Property: pKi
Numbers only, as −log10 of the molar value.

Illustrative cases are given below, each with its answer.
compound="CN(C)C(c1ccccc1)C1CCC(CCNC(=O)c2cccc(Cl)c2)CC1 (single isomer, unassigned) [compound 398]" property=pKi test_value=8.13
compound="CN(C)C(c1ccc(F)cc1)C1CCC(CNC(=O)c2csc3ccccc23)CC1 (stereo not shown) [compound 344]" property=pKi test_value=7.89
compound="CN(C)C(c1cccc(F)c1)C1CCC(CNC(=O)c2cccs2)CC1 (single isomer, unassigned) [compound 340]" property=pKi test_value=7.26
compound="CCC(CC)C(=O)N(Cc1ccccc1)C1CCC(C(c2ccccc2)N(C)C)CC1 (stereo not shown) [compound 101, hydrochloride]" property=pKi test_value=8.64
compound="COc1ccccc1C(=O)NC1CCC(C(c2cccs2)N(C)C)CC1 (stereo not shown) [compound 207]" property=pKi test_value=7.55
compound="CCOC(=O)CCC1CCC(C(c2ccccc2)N(C)C)CC1 (stereo not shown) [compound 133]" property=pKi test_value=7.02

Hi team, please reply with pKi for each item in this list.
1. CN(C)C(c1cccc(F)c1)C1CCC(CNC(=O)C2(c3ccc(Cl)cc3)CCCC2)CC1 (stereo not shown) [compound 327]
2. CC(Oc1ccccc1)C(=O)NCC1CCC(C(c2cccs2)N(C)C)CC1 (stereo not shown) [compound 304]
3. CN(C)C(c1ccccc1)C1CCC(NC(=O)c2cncc(Br)c2)CC1 (stereo not shown) [compound 259]

Result:
1: 7.20; 2: 7.82; 3: 7.21

Would you mind listing pKi for each of the following compounds?
1. CC(Oc1ccccc1)C(=O)NC1CCC(C(c2ccccc2)N(C)C)CC1 (stereo not shown) [compound 230]
2. CN(C)C(c1ccccc1)C1CCC(NC(=O)c2cccc(Br)c2)CC1 (stereo not shown) [compound 197]
3. CN(C)C(c1cccs1)C1CCC(CNC(=O)c2ccccc2Br)CC1 (stereo not shown) [compound 296]
4. CCn1nc(C)c(Br)c1C(=O)NC1CCC(C(c2ccccc2)N(C)C)CC1 (stereo not shown) [compound 268]
5. CC(=O)N(Cc1ccccc1)C1CCC(C(c2ccccc2)N(C)C)CC1 (stereo not shown) [compound 100, hydrochloride]
6. CN(C)C(c1ccccc1)C1CCC(CCNC(=O)c2ccc(F)cc2)CC1 (stereo not shown) [compound 407]
7. CN(C)C(c1ccc(Cl)cc1)C1CCC(CCNC(=O)c2cc(F)c(Cl)cc2Cl)CC1 (stereo not shown) [compound 437]

Result:
1: 7.68; 2: 7.80; 3: 9.52; 4: 7.07; 5: 8.46; 6: 7.32; 7: 7.00

Parameters: items (list). Returns: pKi for each item.
1. COc1cccc(CC(=O)NCC2CCC(C(c3ccccc3)N(C)C)CC2)c1 (stereo not shown) [compound 349]
2. CC(=O)N(CCc1c[nH]c2ccccc12)C1CCC(C(c2ccccc2)N(C)C)CC1 (stereo not shown) [compound 182]
3. CN(C)C(c1cccs1)C1CCC(NC(=O)c2ccc(F)c(C(F)(F)F)c2)CC1 (stereo not shown) [compound 192]
4. CN(C)C(c1ccccc1)C1CCC(CCNC(=O)c2ccc(Cl)cc2)CC1 (stereo not shown) [compound 405]

Result:
1. 7.30
2. 8.68
3. 7.74
4. 7.60
